Test system: LOX IMVI melanoma
Experiment: NCI tumour cell line growth inhibition, 48 h
measure: TGI

# example entries with known answers
{"columns": ["compound", "TGI"],
 "data": [
  ["OC12c3ccccc3C1CCCCCCCCCC21OCCO1 (centres undefined)", "> 100 µM"],
  ["Nc1ccc2ccc(N3CCNCC3)nc2n1", "> 100 µM"],
  ["COc1c(Br)cc2ccccc2c1-c1c(OC)c(Br)cc2ccccc12", "> 100 µM"]
]}

INPUT: Would you kindly share the measured TGI for O=C(/C=C1\C(=O)N(Cc2ccccc2)c2ccccc21)c1ccc(OCCN2CCCCC2)cc1 ?
OUTPUT: 3.14 µM

INPUT: Would you kindly share the measured TGI for CCCCCCCCCCCCCCCCCCNC(=S)/N=C/c1c(O)c2ccccc2[nH]c1=O ?
OUTPUT: 32.2 µM

INPUT: Would you kindly share the measured TGI for Cc1cc2c(c(S(=O)(=O)c3ccccc3[N+](=O)[O-])c1)NCCC2 ?
OUTPUT: > 100 µM

INPUT: Would you kindly share the measured TGI for CCN(CC)CC1CN=C(N)O1 (centres undefined) ?
OUTPUT: > 100 µM

INPUT: Would you kindly share the measured TGI for O=C(O)c1c2c(cc3c1CC1(Cc4cc5c(cc4C1=O)CCC5)C3)CCC2 (centres undefined) ?
OUTPUT: > 100 µM

INPUT: Would you kindly share the measured TGI for CCCCCCCC/C=C1\CCC(CN2CCOCC2)C1=O (centres undefined) ?
OUTPUT: 9.94 µM

---

System: HCT-116 colon
Test: NCI tumour cell line growth inhibition, 48 h
# key: entry, value: TGI
Output spec: scalar in µM, unitless text.

{"columns": ["molecule", "unitsOfMeasure", "TGI"],
 "data": [
  ["COC(=O)CNC(=O)CCC(C)[C@H]1CCC2C3C(C[C@H](OC(C)=O)[C@@]21C)[C@@]1(C)CCC2(C[C@H]1C[C@H]3OC(C)=O)OOC1(CC[C@]3(C)C4C[C@H](OC(C)=O)[C@@]5(C)C(CC[C@@H]5C(C)CCC(=O)NCC(=O)OC)C4[C@H](OC(C)=O)C[C@@H]3C1)OO2 (stereo not given in full)", "µM", 9.1]
]}

Okay, now this molecule:
INPUT: // map CN(C)CCNC(=O)c1cccc2nc3c(C(=O)NCCN(C)C)cccc3nc12 to recorded TGI (system: HCT-116 colon)
OUTPUT: 13.4

---

Tested on: SF-295 CNS
Test: NCI tumour cell line growth inhibition, 48 h; in the data active = GI50 below about 0.43 µM; inactive = the rest
Your response should consist of one outcome taken from 1 (yes) (active), 0 (no) (inactive)

{"columns": ["compound", "label"],
 "data": [
  ["COc1ccc(NC(=O)c2sc3nc(C)c(C(=O)/C=C/c4cccc(OC)c4)cc3c2N)cc1", "0 (no)"]
]}

INPUT: Outcome? CCCCCCCC(=O)SCC/C=C/[C@@H]1CC(=O)NCc2nc(cs2)C2=N[C@@](C)(CS2)C(=O)N[C@@H](C(C)C)C(=O)N1
OUTPUT: 1 (yes)

INPUT: Outcome? CO[C@H]1C[C@](C)(O)Cc2cc3c(c(O)c21)C(=O)c1c(O)cc2c(c1C3=O)O[C@@H]1O[C@@]2(C)[C@H](O)[C@@H](N(C)C)[C@@H]1O
OUTPUT: 0 (no)

INPUT: Outcome? C[C@]12CC[C@H]3[C@@H](CC4SC(N)=NC45C/C(=N/NC(N)=O)CC[C@]35C)[C@@H]1CCC2=O (stereo partly drawn)
OUTPUT: 0 (no)

INPUT: Outcome? Cc1ccc2c(c1)C(=O)c1c-2c(OCCCN(C)C)nc2ccccc12
OUTPUT: 0 (no)

INPUT: Outcome? CCC1(OC(=O)CN)C(=O)OCc2c1cc1n(c2=O)Cc2cc3ccccc3nc2-1 (stereo not drawn)
OUTPUT: 1 (yes)

INPUT: Outcome? COC(=O)c1c2c(c(C)[n+]([O-])c1C)C(=O)C=C(NCc1cccc(Cl)c1)C2=O
OUTPUT: 1 (yes)

INPUT: Outcome? C=C1SC(=Nc2ccccc2Cl)N(C(=O)c2sc3ccccc3c2Cl)C12CCCCC2
OUTPUT: 0 (no)

From: PubChem BioAssay (NCI)
